# target: Solute carrier family 2, facilitated glucose transporter member 1 (Homo sapiens, UniProt P11166)
# Sequence (P11166 whole entry): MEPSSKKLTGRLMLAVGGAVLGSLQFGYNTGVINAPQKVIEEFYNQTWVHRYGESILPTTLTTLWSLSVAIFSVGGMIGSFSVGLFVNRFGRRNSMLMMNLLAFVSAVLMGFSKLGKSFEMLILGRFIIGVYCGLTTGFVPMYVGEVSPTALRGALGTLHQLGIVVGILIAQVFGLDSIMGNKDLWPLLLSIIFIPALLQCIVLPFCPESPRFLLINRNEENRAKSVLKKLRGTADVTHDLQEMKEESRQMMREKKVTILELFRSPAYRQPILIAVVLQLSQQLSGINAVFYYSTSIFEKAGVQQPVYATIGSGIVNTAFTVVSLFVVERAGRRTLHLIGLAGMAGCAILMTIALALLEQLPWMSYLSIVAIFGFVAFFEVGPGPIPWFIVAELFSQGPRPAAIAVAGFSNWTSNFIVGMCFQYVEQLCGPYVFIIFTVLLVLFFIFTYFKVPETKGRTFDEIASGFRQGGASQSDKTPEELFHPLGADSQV
# assay remarks: Inhibition of GLUT1 in human wild-type DLD-1 cells assessed as reduction in ATP level measured after 90 mins by Celltiter-glo luminescent assay
pIC50: −log10 of the molar value.
observable: pIC50

Cc1nn(C(=O)c2ccncc2)c(C)c1/N=N/c1ccc(Cl)cc1    4.95

(I) COc1ccccc1N1CCN(C(=O)c2cnn(-c3nccc(-c4cccs4)n3)c2C2CC2)CC1
(II) CCOc1cccc2c1O[C@]1(C)C[C@@H]2NC(=O)N1c1cccc(C(=O)NCCc2ccc(C)cc2)c1
Problem: Returns: the argument ( I or II ) having the larger pIC50. // caller expects the label of the chosen entry
Result: II
(II: 6.79, I: 5.54)

(1) Cc1cccc(NC(=O)CN2C(=O)N/C(=C/c3cc(C)n(-c4ccc(O)cc4)c3C)C2=O)c1
(2) CC(C)(C)c1ccc(S(=O)(=O)NCc2ccc(C(=O)Nc3cccnc3)cc2)cc1
(3) O=C(Oc1ccc2ccc(=O)oc2c1OC(=O)c1ccc(O)cc1)c1ccc(O)cc1
Problem: Rank by pIC50 (largest to smallest). // list labels; follow requested order
Result: 2, 1, 3
(2: 6.00, 1: 4.97, 3: 4.42)
